- systemUnderTest: Mitogen-activated protein kinase kinase kinase kinase 4 (Homo sapiens)
- Sequence (O95819 whole entry): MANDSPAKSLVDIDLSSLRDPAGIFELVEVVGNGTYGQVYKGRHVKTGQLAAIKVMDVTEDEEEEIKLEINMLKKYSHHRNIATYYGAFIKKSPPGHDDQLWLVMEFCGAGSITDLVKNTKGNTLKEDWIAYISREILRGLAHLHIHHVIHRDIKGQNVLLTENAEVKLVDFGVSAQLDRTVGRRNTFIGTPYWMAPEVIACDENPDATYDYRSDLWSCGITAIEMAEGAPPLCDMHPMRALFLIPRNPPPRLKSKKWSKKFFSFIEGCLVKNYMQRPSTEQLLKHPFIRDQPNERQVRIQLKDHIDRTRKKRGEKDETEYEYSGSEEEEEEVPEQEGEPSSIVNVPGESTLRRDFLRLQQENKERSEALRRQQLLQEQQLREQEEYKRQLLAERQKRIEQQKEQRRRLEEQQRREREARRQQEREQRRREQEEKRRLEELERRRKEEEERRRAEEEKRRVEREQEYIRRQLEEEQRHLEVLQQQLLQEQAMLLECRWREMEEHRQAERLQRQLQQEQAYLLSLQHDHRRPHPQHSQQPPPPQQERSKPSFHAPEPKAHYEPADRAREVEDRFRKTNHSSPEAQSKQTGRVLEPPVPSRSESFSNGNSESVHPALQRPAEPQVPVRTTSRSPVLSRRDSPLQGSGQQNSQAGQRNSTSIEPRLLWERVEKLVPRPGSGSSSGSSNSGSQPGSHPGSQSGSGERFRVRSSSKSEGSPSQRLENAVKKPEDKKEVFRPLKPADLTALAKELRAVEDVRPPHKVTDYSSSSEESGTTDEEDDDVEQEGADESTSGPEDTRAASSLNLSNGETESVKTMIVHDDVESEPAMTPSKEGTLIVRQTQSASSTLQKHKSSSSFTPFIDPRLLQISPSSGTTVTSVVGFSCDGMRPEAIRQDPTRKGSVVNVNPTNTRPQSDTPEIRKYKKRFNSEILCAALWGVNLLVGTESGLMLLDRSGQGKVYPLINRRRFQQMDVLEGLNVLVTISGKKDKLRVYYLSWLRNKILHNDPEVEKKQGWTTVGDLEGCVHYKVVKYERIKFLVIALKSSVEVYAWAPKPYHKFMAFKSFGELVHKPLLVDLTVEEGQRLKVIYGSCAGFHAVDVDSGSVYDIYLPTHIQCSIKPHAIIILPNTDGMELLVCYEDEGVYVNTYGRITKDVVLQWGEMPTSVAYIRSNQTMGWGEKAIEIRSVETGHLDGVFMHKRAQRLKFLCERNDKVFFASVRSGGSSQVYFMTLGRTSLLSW
- testDescription: Inhibition of MAP4K4 (unknown origin)
assayEndpoint: IC50 (µM)

molsmiles=CC(C)(C)c1cc(NC(=O)Cc2ccc(Nc3ncnc4[nH]c(-c5ccc(S(C)(=O)=O)cc5)cc34)cc2)no1 systemundertest="Mitogen-activated protein kinase kinase kinase kinase 4 (Homo sapiens)" unitstring=µM quantitativereadout=3.43

----------
- systemUnderTest: UniProt P07949
- Sequence (P07949 whole entry, the tested form may be a part): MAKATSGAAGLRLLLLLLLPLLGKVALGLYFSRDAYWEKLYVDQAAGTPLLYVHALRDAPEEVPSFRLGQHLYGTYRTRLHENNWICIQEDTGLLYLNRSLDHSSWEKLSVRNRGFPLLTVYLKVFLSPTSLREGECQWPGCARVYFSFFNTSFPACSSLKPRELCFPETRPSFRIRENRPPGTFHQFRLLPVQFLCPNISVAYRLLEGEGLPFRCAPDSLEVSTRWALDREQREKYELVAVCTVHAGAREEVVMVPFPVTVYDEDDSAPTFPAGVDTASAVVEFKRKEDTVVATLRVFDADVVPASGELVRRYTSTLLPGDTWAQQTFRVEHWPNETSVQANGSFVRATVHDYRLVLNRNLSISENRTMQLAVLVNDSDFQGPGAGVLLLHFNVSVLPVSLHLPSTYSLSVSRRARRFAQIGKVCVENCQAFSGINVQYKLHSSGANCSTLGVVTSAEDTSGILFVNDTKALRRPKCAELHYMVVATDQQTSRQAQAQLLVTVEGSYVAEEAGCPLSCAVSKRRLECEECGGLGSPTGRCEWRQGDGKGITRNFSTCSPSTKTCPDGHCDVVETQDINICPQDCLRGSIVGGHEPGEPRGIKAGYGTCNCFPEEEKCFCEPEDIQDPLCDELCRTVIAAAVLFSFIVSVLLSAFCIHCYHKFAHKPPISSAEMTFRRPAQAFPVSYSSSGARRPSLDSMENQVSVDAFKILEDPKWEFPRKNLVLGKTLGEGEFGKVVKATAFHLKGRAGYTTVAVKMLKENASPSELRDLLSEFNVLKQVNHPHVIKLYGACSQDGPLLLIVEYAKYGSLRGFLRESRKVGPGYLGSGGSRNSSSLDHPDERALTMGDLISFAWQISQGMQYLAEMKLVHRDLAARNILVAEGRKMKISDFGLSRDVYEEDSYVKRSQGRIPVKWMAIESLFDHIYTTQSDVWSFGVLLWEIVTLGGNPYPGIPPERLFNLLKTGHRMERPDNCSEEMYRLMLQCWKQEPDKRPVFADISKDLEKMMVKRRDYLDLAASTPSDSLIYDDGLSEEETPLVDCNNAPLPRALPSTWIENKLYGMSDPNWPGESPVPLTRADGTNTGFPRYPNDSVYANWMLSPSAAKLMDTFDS
- testDescription: Inhibition of recombinant human GST-tagged RET cytoplasmic domain (658 to 1114 residues) expressed in baculovirus expression system using 5-FAM-EEPLYWSFPAKKK-CONH2 as substrate preincubated for 60 mins followed by substrate addition by microfluidic assay
assayEndpoint: IC50

molsmiles=O=C(Cc1ccc(Nc2ncnc3[nH]ccc23)cc1)Nc1ccc(OC(F)(F)F)cc1 assayendpoint=IC50 result="> 20 µM"
molsmiles=Cn1nc(C(C)(C)C)cc1NC(=O)Cc1ccc(Nc2ncnc3[nH]ccc23)cc1 assayendpoint=IC50 result="0.127 µM"
molsmiles=Cn1cc(-c2cc3c(Nc4ccc(CC(=O)Nc5cc(C(C)(C)C)nn5C)cc4)ncnc3s2)cn1 assayendpoint=IC50 result="1.39 µM"
molsmiles=CC(C)(C)c1cc(NC(=O)Cc2ccc(Nc3ncnc4[nH]ccc34)cc2)no1 assayendpoint=IC50 result="0.076 µM"
molsmiles=Cn1cc(-c2cc3c(Nc4ccc(CC(=O)Nc5cccc(F)c5)cc4)ncnc3[nH]2)cn1 assayendpoint=IC50 result="> 20 µM"
molsmiles=O=C(Cc1ccc(Nc2ncnc3[nH]ccc23)cc1)NCc1ccccc1 assayendpoint=IC50 result="4.65 µM"
molsmiles=CC(C)(C)c1cc(NC(=O)Cc2ccc(Nc3ncnc4[nH]c(-c5ccsc5)cc34)cc2)no1 assayendpoint=IC50 result="0.05 µM"
molsmiles=CC(C)(C)c1cc(NC(=O)Cc2cccc(Nc3ncnc4[nH]ccc34)c2)no1 assayendpoint=IC50 result="31.6 µM"
molsmiles=CC(C)c1ccc(NC(=O)Cc2ccc(Nc3ncnc4[nH]ccc34)cc2)cc1 assayendpoint=IC50 result="7.69 µM"
molsmiles=Cn1nc(C(C)(C)C)cc1NC(=O)Cc1ccc(Nc2ncnc3sccc23)cc1 assayendpoint=IC50 result="1.06 µM"
molsmiles=COc1cc(NC(=O)Cc2ccc(Nc3ncnc4[nH]ccc34)cc2)cc(OC)c1OC assayendpoint=IC50 result="47.6 µM"
molsmiles=CC(C)(C)c1cc(NC(=O)Cc2ccc(Nc3ncnc4[nH]c(-c5ccc(S(C)(=O)=O)cc5)cc34)cc2)no1 assayendpoint=IC50 result="0.0068 µM"
